# IC50 values compiled below
- target-under-test: DDR2 extracellular domain (ECD) (Homo sapiens, UniProt Q16832)
- Sequence (Q16832 22-399 limits assumed): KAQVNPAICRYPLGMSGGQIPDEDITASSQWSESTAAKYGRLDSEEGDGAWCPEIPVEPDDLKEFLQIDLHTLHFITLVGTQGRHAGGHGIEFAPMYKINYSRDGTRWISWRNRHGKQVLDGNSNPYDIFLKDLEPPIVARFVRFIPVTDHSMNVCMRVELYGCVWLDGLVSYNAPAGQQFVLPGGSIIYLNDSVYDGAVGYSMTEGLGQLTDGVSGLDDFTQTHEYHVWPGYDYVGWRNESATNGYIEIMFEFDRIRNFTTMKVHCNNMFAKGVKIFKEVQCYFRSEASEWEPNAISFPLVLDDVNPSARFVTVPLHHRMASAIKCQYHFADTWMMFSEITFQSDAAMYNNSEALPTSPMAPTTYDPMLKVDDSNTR
- experiment: in vitro ELISA-type assay, binding of soluble DDR2 ECD to immobilized collagen triple helical peptide
- run-parameters: values given in μM; read-out: IC50, Inhibition of DDR2-collagen binding activity
Please respond with the number in µM and leave the unit unwritten.

Here are 4 molecules together with their reported answers.
| molecule | target-under-test | IC50 / µM |
| --- | --- | --- |
| COCCOc1ccc2nc3ccc(=O)cc-3oc2c1 | DDR2 extracellular domain (ECD) (Homo sapiens, UniProt Q16832) | 14 |
| CCOc1ccc2nc3ccc(=O)cc-3oc2c1 [7-ethyloxy-phenoxazin-3-one, reference compound] | DDR2 extracellular domain (ECD) (Homo sapiens, UniProt Q16832) | 4 |
| O=C(Oc1ccc2nc3ccc(=O)cc-3oc2c1)c1ccccc1 | DDR2 extracellular domain (ECD) (Homo sapiens, UniProt Q16832) | 1.41 |
| CCCCCOc1ccc2nc3ccc(=O)cc-3oc2c1 | DDR2 extracellular domain (ECD) (Homo sapiens, UniProt Q16832) | 3.5 |

Enquiry: Query IC50 for `O=c1ccc2nc3ccc(OCc4cccnc4)cc3oc-2c1`
Return: 1.2

The values you see were collected from patent US20170334865A1.
